tested on: BT-474; experiment: normalised response (% of control), CellTiter-Glo; higher = more viable cells (100 = DMSO, 0 = benzethonium chloride kill control); conditions: incubation time: 72 h
OBSERVED_PROPERTY: normalised response (%)
Value expressed in %; do not type the unit.

Take a look at these entries with their results.
In [3]: df
Out[3]:
                                   molecule  measured_on  measurement_units  assay_value
0  C[C@]12O[C@H](C[C@]1(O)CO)n1c3ccccc3c3c4c(c5c6ccccc6n2c5c31)CNC4=O [Lestaurtinib] (1000 nM)       BT-474                  %         56.8
1  CCCCC/C=C/C=C1/C(=O)C=C[C@@H]1C/C=C\CCCC(=O)O [15D-PGJ2] (800 nM)       BT-474                  %         95.4
2  O=S(=O)(c1cccc2cnccc12)N1CCCNCC1 [Fasudil] (50000 nM)       BT-474                  %         67.5

# next molecule below
Query block: Please look up its normalised response: COc1cc(CCc2cc(NC(=O)c3ccc(N4CC(C)NC(C)C4)cc3)n[nH]2)cc(OC)c1 (centres undefined) [AZD4547] (1000 nM)
Result block: 99.6
